Hey, just so you know, these numbers are from patent US20090291081A1.

measurement target: T1, human IL-1α (human, UniProt P01583 113-271)
T1 construct: also called IL-1alpha; hIL-1α
T1 sequence (looked up): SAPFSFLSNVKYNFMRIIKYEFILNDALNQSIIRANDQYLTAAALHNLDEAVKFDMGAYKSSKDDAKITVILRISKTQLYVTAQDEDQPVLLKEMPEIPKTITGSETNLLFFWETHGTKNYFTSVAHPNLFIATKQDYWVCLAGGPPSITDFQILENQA
experiment notes: Table 62 IC50; RBA presumed
readout: IC50 (nM)
Write the value in nM as a bare number.

Known results for binders:
ABT1-95-60 (other, VK dAb) VL: DIQMTQSPASLSASVGDRVTITCRASQPIVANLRWYQQKPGKAPKLLIYSSSYLEPGVPSRFSGSGSGTDFTLTISSLQPEDFATYHCQQGYRWPVTFGQGTKVEIKR
0.7
ABT1-95-22 (other, VK dAb) VL: DIQMTQSPSSLSASVGDRVTITCRASQPIVRNLRWYQQKPGKAPKLLIYSSSYLEPGVPSRFSGSGSGTDFTLTISSLQPEDFATYYCQQGYHWPVTFGQGTKVEIKR
0.5

Prompt: I'd like to know its IC50. The binder in question is ABT1-141-8 (other, VK dAb) VL: DIQMTQSPSSLSASVGDRVTITCRASQWIQKQLAWYQLKPGKAPKLLIYSSSWLQSGVPSRFSGSGSGTDFTLTISSLQPEDFATYYCQQHLRVPFTFGQGTKVEIKR
Completion: 10
